B1: Homeobox protein cut-like 1, residues 548 to 629; numbered along this chain, P39880 (parent)
chain: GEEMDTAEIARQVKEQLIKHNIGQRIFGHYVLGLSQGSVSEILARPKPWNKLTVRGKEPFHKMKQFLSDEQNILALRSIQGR

- Variants of: B1
- assay.info: abundance fitness (aPCA) (normalised: wild type 0, dead -1); higher = more abundant; growth selection in yeast, the domain comes from the species named
- condition.description: Homo sapiens
Answer each item with its documented abundance fitness.
Answers are plain numbers.

In [3]: df
Out[3]:
   change  quantitative_readout
0    P48C                -0.268

Batch request: abundance fitness for each of the following variants.
1. I9L
2. M63P
3. T6S
4. E70T
5. H20W
6. K57M
7. R77W
8. G33A

[-0.13, -0.797, -0.468, -0.121, -0.074, -0.152, -0.336, -0.341]
